Assay: Half life in Balb/c mouse at 25 mg/kg, po administered as single dose
Type: ADME, organism-based
Conditions: in vivo
Task for the reader: assign each of the following compounds its reported half-life.
Quick note: number first, unit second.

# input Please report the recorded half-life for CC(=O)Nc1ccc2oc(-c3ccnc(C(=O)N4CCN([C@H](c5ccc(F)cc5)c5nnn(C)n5)CC4)c3)nc2c1 .
# output 5.84 h

# input And CC(=O)Nc1ccc2oc(-c3ccnc(C(=O)N4CCN(C(c5ccccc5)c5nnn(C)n5)CC4)c3)nc2c1 (racemic) ?
# output 3.69 h

* * *

Test: Tmax in Balb/c mouse at 25 mg/kg, po administered as single dose
Assay type: ADME, organism-based
Settings: in vivo
Task for the reader: assign each of the following compounds its reported Tmax.
Quick note: number first, unit second.

# input Please report the recorded Tmax for CC(=O)Nc1ccc2oc(-c3ccnc(C(=O)N4CCN([C@H](c5ccc(F)cc5)c5nnn(C)n5)CC4)c3)nc2c1 .
# output 19.8 min

# input And CC(=O)Nc1ccc2oc(-c3ccnc(C(=O)N4CCN(C(c5ccccc5)c5nnn(C)n5)CC4)c3)nc2c1 (racemic) ?
# output 15 min

* * *

Test: Selectivity index, ratio of CC50 for cytotoxicity against dog MDCK cells to IC50 for antiviral activity against Influenza A virus […] infected in dog MDCK cells
Format: toxicity, cell-based
Settings: read-out: Selectivity Index
reported-metric: selectivity ratio

# input Please report the recorded selectivity ratio for CCOC(=O)C1=C[C@@H](OC(CC)CC)[C@H](NC(C)=O)[C@@H](N)C1 [OSELTAMIVIR] .
# output > 58

# input And CC(=O)Nc1ccc2oc(-c3ccnc(C(=O)N4CCN([C@@H](c5ccccc5)c5nnn(C)n5)CC4)c3)nc2c1 ?
# output > 105

# input And CC(=O)Nc1ccc2oc(-c3ccnc(C(=O)N4CCN([C@H](c5ccc(F)cc5)c5nnn(C)n5)CC4)c3)nc2c1 ?
# output > 6670

# input And CC(=O)Nc1ccc2oc(-c3ccnc(C(=O)N4CCN([C@@H](c5ccc(F)cc5)c5nnn(C)n5)CC4)c3)nc2c1 ?
# output > 36

# input And NC(=O)c1ncn([C@@H]2O[C@H](CO)[C@@H](O)[C@H]2O)n1 [RIBAVIRIN] ?
# output > 46

# input And CC(=O)Nc1ccc2oc(-c3ccnc(C(=O)N4CCN([C@H](c5ccccc5)c5nnn(C)n5)CC4)c3)nc2c1 ?
# output 3590

* * *

Assay: Cytotoxicity against dog MDCK cells assessed as reduction in cell viability
Format: cell-based, Canis lupus familiaris
reported-metric: CC50

# input Please report the recorded CC50 for CC(=O)Nc1ccc2oc(-c3ccnc(C(=O)N4CCN(C(c5cccc(F)c5)c5nnn(C)n5)CC4)c3)nc2c1 (stereo not given) .
# output > 50 µM

# input And CC(=O)Nc1ccc2oc(-c3ccnc(C(=O)N4CCC5(CC4)CCN(C(c4ccccc4)c4nnn(C)n4)CC5)c3)nc2c1 (stereo not given) ?
# output > 50 µM

# input And CCOC(=O)C1=C[C@@H](OC(CC)CC)[C@H](NC(C)=O)[C@@H](N)C1 ?
# output > 200 µM

# input And CC(=O)Nc1ccc2oc(-c3ccnc(C(=O)N4CCN([C@H](c5ccc(F)cc5)c5nnn(C)n5)CC4)c3)nc2c1 ?
# output > 200 µM

# input And CC(=O)Nc1ccc2oc(-c3ccnc(C(=O)N4CCN(C(c5nnn(C)n5)c5ccccc5F)CC4)c3)nc2c1 (stereo not given) ?
# output > 50 µM
